protocol: Covalent inhibition of TrxR (unknown origin) assessed as covalent bond formation incubated up to 30 mins in presence of NADPH by Ellman's method
Parameters: species or system Homo sapiens
pKi: −log10 of the molar value.
recorded metric: pKi

A = CC(=O)O[C@H]1C=C([C@H](C)[C@H]2CC(C)=C(C)C(=O)O2)[C@@]2(C)CC[C@H]3[C@@H](C[C@H]4O[C@]45[C@@H](OC(=O)/C=C/C(=O)N(C)C)C=CC(=O)[C@]35C)[C@]12O
B = CC(=O)O[C@H]1C=C([C@H](C)[C@H]2CC(C)=C(C)C(=O)O2)[C@@]2(C)CC[C@H]3[C@@H](C[C@H]4O[C@]45[C@@H](O)C=CC(=O)[C@]35C)[C@]12O
Req: Please let me know which one, A or B , has a lower measured pKi value. Answer = label.
Resp: B
